- Assay Remarks: Quantification of tamoxifen and seven metabolites in bone marrow plasma by LC-MS/MS
- Test Conditions: bone marrow plasma, N = 406, ~ 8 months from tamoxifen initiation
Readout Type: Mean concentration
Please state the value followed by its unit.

| Molecule | Mean concentration |
| --- | --- |
| CC/C(=C(\c1ccccc1)c1ccc(OCCN(C)C)cc1)c1ccc(O)cc1 | 0.0069 µM |

Entry under test: CCC(=C(c1ccccc1)c1ccc(OCCNC)cc1)c1ccc(O)cc1 [Z‐4'‐endoxifen] . Its Mean concentration was 0.0208 µM

Entry under test: "CC/C(=C(\c1ccccc1)c1ccc(OCCN(C)C)cc1)c1ccccc1" . Its Mean concentration was 0.3659 µM

Entry under test: "CC/C(=C(\c1ccccc1)c1ccc(OCCN)cc1)c1ccccc1" . Its Mean concentration was 0.0947 µM

Entry under test: CC/C(=C(\c1ccc(O)cc1)c1ccc(OCCNC)cc1)c1ccccc1 [Z‐endoxifen, 4‐hydroxy‐N‐desmethyl tamoxifen] . Its Mean concentration was 0.0287 µM

Entry under test: "CC/C(=C(\c1ccccc1)c1ccc(OCCNC)cc1)c1ccccc1" . Its Mean concentration was 0.6949 µM

Entry under test: "CC/C(=C(\c1ccccc1)c1ccc(OCC[N+](C)(C)[O-])cc1)c1ccccc1" . Its Mean concentration was 0.0499 µM

###

- Assay Remarks: Quantification of tamoxifen and seven metabolites in bone marrow plasma by LC-MS/MS
- Test Conditions: bone marrow plasma, N = 406, ~ 8 months from tamoxifen initiation
Readout Type: log10 Median concentration (log10 of the value in nM)
Reminder: these figures are log10 of reported Median concentration, in nM before transformation.

See these solved cases before continuing.
| Compound | Recorded Measurement |
| --- | --- |
| CC/C(=C(\c1ccccc1)c1ccc(OCC[N+](C)(C)[O-])cc1)c1ccccc1 | 1.63 |
| CC/C(=C(\c1ccccc1)c1ccc(OCCN(C)C)cc1)c1ccc(O)cc1 | 0.82 |

Entry under test: "CC/C(=C(\c1ccccc1)c1ccc(OCCNC)cc1)c1ccccc1" . Its log10 Median concentration was 2.82

Entry under test: CCC(=C(c1ccccc1)c1ccc(OCCNC)cc1)c1ccc(O)cc1 [Z‐4'‐endoxifen] . Its log10 Median concentration was 1.29

Entry under test: CC/C(=C(\c1ccc(O)cc1)c1ccc(OCCNC)cc1)c1ccccc1 [Z‐endoxifen, 4‐hydroxy‐N‐desmethyl tamoxifen] . Its log10 Median concentration was 1.42

Entry under test: "CC/C(=C(\c1ccccc1)c1ccc(OCCN(C)C)cc1)c1ccccc1" . Its log10 Median concentration was 2.53

Hello, the source for this data is paper PMC8024735, in case you need it.
